# measurement notes: chemical genetic growth profiling, strain panel (AID 1159580);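 further: tested at 20 µM; growth read once vehicle control cultures reached saturation at 30 °C; lower values mean less growth of the strain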
# condition parameters: S. cerevisiae deletion strains, growth OD, locus YPR167C, strain met16
Out of some 5,500 compounds screened, about 2,000 (36%) were called active. About 18% were inconclusive and are not listed. No stated cut-off is given here; in the data, active means normalized growth mostly below about 0.91 (no sharp cut-off); inconclusive means no clear call, values can overlap the other calls; inactive means mostly above about 0.92. Some of the results follow.
Write down the outcome that applies. Available outcomes: active, inactive

Query: I'd appreciate the recorded outcome for "NC(=O)c1cc([N+](=O)[O-])cc([N+](=O)[O-])c1" from this test.
Result: inactive

Query: I'd appreciate the recorded outcome for CCCCCC(O)C1C(=O)OC(C)C(O)/C=C/C=C/C=C/C=C/C=C(\C)C(O)CC(O)CC(O)CC(O)CC(O)CC(O)CC1O (stereo not given) from this test.
Result: inactive

Query: I'd appreciate the recorded outcome for CC1(C)S[C@@H]2[C@H](NC(=O)C(C(=O)O)c3ccccc3)C(=O)N2[C@H]1C(=O)O (stereo not given in full) from this test.
Result: inactive

Query: I'd appreciate the recorded outcome for CC1(C)C(O)CC(=O)C2(C)C1CC(O)C1(C)C2CCC2(C)C(c3ccoc3)OC(=O)C3OC321 (stereo not given) from this test.
Result: inactive

Query: I'd appreciate the recorded outcome for C[C@]12CCC3C(CC[C@]4(O)C[C@@H](O)CC[C@]34C=O)[C@@]1(O)CCC2C1=CC(=O)OC1 (stereo not given in full) from this test.
Result: inactive

Query: I'd appreciate the recorded outcome for C[C@]12CC[C@H](O)C[C@H]1CCC1C2CC[C@]2(C)[C@@H](C3=CC(=O)OC3)[C@@H](O)C[C@]12O (stereo not given in full) from this test.
Result: inactive

Query: I'd appreciate the recorded outcome for "Cc1c(C(N)=O)cc([N+](=O)[O-])cc1[N+](=O)[O-]" from this test.
Result: inactive

Query: I'd appreciate the recorded outcome for "CCOC(=O)C1=C(O)C(=O)N(Cc2ccccc2)C1" from this test.
Result: inactive

Query: I'd appreciate the recorded outcome for "COc1ccccc1N1CCN(CCCNc2cc(=O)n(C)c(=O)n2C)CC1" from this test.
Result: inactive

Query: I'd appreciate the recorded outcome for COC1C(O)C(O[C@H]2CC[C@]3(C=O)C4C(CC[C@]3(O)C2)[C@@]2(O)CC[C@H](C3=CC(=O)OC3)[C@@]2(C)C[C@H]4OC(C)=O)OC(C)C1OC(C)=O (stereo not given in full) from this test.
Result: inactive

Query: I'd appreciate the recorded outcome for "CC[C@@]1(O)C(=O)OCc2c1cc1n(c2=O)Cc2cc3cc(O)ccc3nc2-1" from this test.
Result: inactive

Query: I'd appreciate the recorded outcome for CC(=O)OC1CC[C@@]2(C)C(CCC3C2CC[C@]2(C)C(C4=CC(=O)OC4)C(OC(C)=O)CC32O)C1 (stereo not given in full) from this test.
Result: inactive

Query: I'd appreciate the recorded outcome for CCC(=O)OCC(=O)C1(OC(=O)CC)C(C)CC2C3CCC4=CC(=O)C=CC4(C)C3(Cl)C(O)CC21C (stereo not given) from this test.
Result: inactive

Query: I'd appreciate the recorded outcome for "CC1=CC(=O)C(C(C)C)=CC1=O" from this test.
Result: active

Query: I'd appreciate the recorded outcome for C[C@H]1O[C@@H](O[C@H]2[C@@H](O)C[C@H](O[C@H]3[C@@H](O)C[C@H](O[C@H]4CC[C@]5(C)C6C[C@@H](O)[C@]7(C)[C@@H](C8=CC(=O)OC8)CC[C@]7(O)C6CC[C@@H]5C4)O[C@@H]3C)O[C@@H]2C)C[C@H](O)[C@@H]1O (stereo not given in full) from this test.
Result: inactive

Query: I'd appreciate the recorded outcome for CC1Cc2ccccc2N1NC(=O)c1ccc(Cl)c(S(N)(=O)=O)c1 (stereo not given) from this test.
Result: inactive

Query: I'd appreciate the recorded outcome for CC1CCCC(C)N1NC(=O)c1ccc(Cl)c(S(N)(=O)=O)c1 (stereo not given) from this test.
Result: inactive

Query: I'd appreciate the recorded outcome for NS(=O)(=O)c1cc2c(cc1C(F)(F)F)NC(Cc1ccccc1)NS2(=O)=O (stereo not given) from this test.
Result: inactive

Query: I'd appreciate the recorded outcome for "NC(=O)c1ccc([N+](=O)[O-])cc1Cl" from this test.
Result: inactive

Query: I'd appreciate the recorded outcome for "COc1cc(O)c2c(=O)cc(-c3ccc(O)cc3)oc2c1" from this test.
Result: inactive

Query: I'd appreciate the recorded outcome for Oc1ccc2c3c1OC1[C@@H](O)CC[C@@]4(O)[C@@H](C2)N(CC2CCC2)CC[C@]314 (stereo not given in full) from this test.
Result: inactive

Query: I'd appreciate the recorded outcome for C[C@H]1O[C@@H](O[C@H]2[C@@H](O)C[C@H](O[C@H]3[C@@H](O)C[C@H](O[C@H]4CC[C@]5(C)C6CC[C@]7(C)[C@@H](C8=CC(=O)OC8)CC[C@]7(O)C6CC[C@@H]5C4)O[C@@H]3C)O[C@@H]2C)C[C@H](O)[C@@H]1O (stereo not given in full) from this test.
Result: inactive

Query: I'd appreciate the recorded outcome for "NC[C@H]1O[C@H](O[C@H]2[C@H](O)[C@@H](O[C@H]3O[C@H](CO)[C@@H](O)[C@H](N)[C@H]3O)[C@H](N)C[C@@H]2N)[C@H](N)[C@@H](O)[C@@H]1O" from this test.
Result: inactive

Query: I'd appreciate the recorded outcome for "CN(C)CC[C@H](c1ccc(Cl)cc1)c1ccccn1" from this test.
Result: inactive

Query: I'd appreciate the recorded outcome for CC(=O)OCC(=O)[C@@]1(O)CCC2C3C[C@H](C)C4=CC(=O)C=CC4(C)C3[C@@H](O)CC21C (stereo not given in full) from this test.
Result: inactive

Query: I'd appreciate the recorded outcome for "CC(=O)Oc1ccccc1C(=O)Oc1ccccc1C(=O)O" from this test.
Result: inactive

Query: I'd appreciate the recorded outcome for COC(=O)C[C@H]1C(C)(C)[C@@H](O)[C@@H]2CC3=C4CC(O)O[C@@H](c5ccoc5)[C@]4(C)CCC3[C@@]1(C)C2=O (stereo not given in full) from this test.
Result: inactive

Query: I'd appreciate the recorded outcome for "NCCCCN" from this test.
Result: inactive

Query: I'd appreciate the recorded outcome for CC(=O)[C@@]1(O)CCC2C3C=C(Cl)C4=CC(=O)[C@@H]5CC5[C@]4(C)C3CC[C@@]21C (stereo not given in full) from this test.
Result: inactive

Query: I'd appreciate the recorded outcome for "O=C(O)c1ccccc1O" from this test.
Result: inactive

Query: I'd appreciate the recorded outcome for "COc1cccc2c1CCC1=CC(=O)CC[C@@]12C" from this test.
Result: inactive

Query: I'd appreciate the recorded outcome for "NC(=O)c1ccccc1O" from this test.
Result: inactive

Query: I'd appreciate the recorded outcome for CSCCC(N)C(=O)NC(CC(C)C)C(=O)NC(Cc1ccccc1)C(=O)O (stereo not given) from this test.
Result: inactive

Query: I'd appreciate the recorded outcome for "COc1ccc(-c2cc(=O)c3c(O)cc(O)cc3o2)cc1" from this test.
Result: inactive

Query: I'd appreciate the recorded outcome for "COc1ccc(-c2cc(=O)c3c(O)c(OC)c(O[C@H]4O[C@H](CO[C@@H]5O[C@@H](C)[C@H](O)[C@@H](O)[C@H]5O)[C@@H](O)[C@H](O)[C@H]4O)cc3o2)cc1" from this test.
Result: inactive
